Tested system: M4 muscarinic receptor (Homo sapiens, UniProt P08173)
Construct: expressed in transfected cells; host or cells: CHO (M4-CHO)
Sequence (P08173 whole entry): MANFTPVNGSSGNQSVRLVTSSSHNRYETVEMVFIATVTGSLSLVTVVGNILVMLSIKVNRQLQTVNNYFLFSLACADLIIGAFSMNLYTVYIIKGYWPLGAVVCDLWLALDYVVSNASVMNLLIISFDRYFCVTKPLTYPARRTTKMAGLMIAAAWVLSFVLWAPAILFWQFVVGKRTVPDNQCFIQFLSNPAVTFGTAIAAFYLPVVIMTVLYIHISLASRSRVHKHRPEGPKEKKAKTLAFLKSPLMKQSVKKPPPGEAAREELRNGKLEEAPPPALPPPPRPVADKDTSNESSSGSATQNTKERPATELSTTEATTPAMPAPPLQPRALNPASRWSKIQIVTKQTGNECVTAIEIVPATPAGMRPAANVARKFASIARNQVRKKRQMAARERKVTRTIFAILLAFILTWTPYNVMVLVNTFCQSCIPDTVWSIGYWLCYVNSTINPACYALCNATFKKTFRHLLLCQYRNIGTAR
Procedure details: Functional mobilization of intracellular calcium (FLIPR), M4-CHO cells
Type: cell-based
Applied conditions: 100% efficacy = maximum response obtained with the Carbachol control
# Emax values compiled below
Readout label: Emax

compound=COc1ccc(F)cc1C1CCN(C[C@H]2C[C@H]3C=C[C@H]2C3)CC1 value_measured="25 to 100%"
compound=COc1ccc(F)cc1C1(O)CCN(CC2CCOCC2)CC1 value_measured="< 25%"
compound=COc1cccc(-c2ccccc2C2CCN([C@H]3C[C@H]4CC[C@H]3C4)CC2)c1 value_measured="25 to 100%"
compound=COc1ccc(-c2ccc(F)cc2)cc1C1CCN([C@H]2C[C@H]3CC[C@H]2C3)CC1 value_measured="25 to 100%"
compound="Cc1ccccc1C1CCN(C2CC3CCC(C3)C2)CC1 (centres unmarked)" value_measured="25 to 100%"
compound="COc1ccccc1C1CCN(C2CC(C)CC(C)C2)CC1 (centres unmarked)" value_measured="< 25%"
compound=CCOC(=O)N1CCC(CN2CCC(c3cc(-c4ccc(S(C)(=O)=O)cc4)ccc3OC)CC2)CC1 value_measured="25 to 100%"
compound="COc1ccc(-c2ccc(CC#N)cc2)cc1C1CCN(C2CC3CCC(C3)C2)CC1 (centres unmarked)" value_measured="25 to 100%"
compound="COc1ccc(C(F)(F)F)cc1C1CCN(C2C[C@H]3CC[C@H]2C3)CC1 (some centres unmarked)" value_measured="25 to 100%"
compound="COc1ccccc1C1CCN(C2CCC(C3CCC(=O)CC3)CC2)CC1 (centres unmarked)" value_measured="25 to 100%"
compound="Cc1ccc(Cl)cc1C1CCN(C2CC[C@H]3CC[C@H]2C3)CC1 (some centres unmarked)" value_measured="25 to 100%"
compound="COc1ccc(Cl)cc1C1(OC)CCN(C2CC3CCC2C3)CC1 (centres unmarked)" value_measured="25 to 100%"
compound="COc1ccccc1C1CC2CCC(C1)N2C1CCCCC1 (centres unmarked)" value_measured="< 25%"
compound="COc1ccc(Cl)cc1C1(F)CCN(C2CCC3CCC2C3)CC1 (centres unmarked)" value_measured="25 to 100%"
compound="COc1ccc(Cl)cc1C1(O)CCN(C2CCC3CCC2C3)CC1 (centres unmarked)" value_measured="25 to 100%"
compound=COc1ccc(Cl)cc1C1(F)CCN(C[C@H]2C[C@H]3C=C[C@H]2C3)CC1 value_measured="25 to 100%"
compound="Cc1ccc(F)c(C2CCN(C3C[C@H]4CC[C@H]3C4)CC2)c1 (some centres unmarked)" value_measured="25 to 100%"
